Let's go through some pIC50 measurements on Tyrosine-protein phosphatase non-receptor type 2 (Homo sapiens) together.
Sequence (P17706 whole entry): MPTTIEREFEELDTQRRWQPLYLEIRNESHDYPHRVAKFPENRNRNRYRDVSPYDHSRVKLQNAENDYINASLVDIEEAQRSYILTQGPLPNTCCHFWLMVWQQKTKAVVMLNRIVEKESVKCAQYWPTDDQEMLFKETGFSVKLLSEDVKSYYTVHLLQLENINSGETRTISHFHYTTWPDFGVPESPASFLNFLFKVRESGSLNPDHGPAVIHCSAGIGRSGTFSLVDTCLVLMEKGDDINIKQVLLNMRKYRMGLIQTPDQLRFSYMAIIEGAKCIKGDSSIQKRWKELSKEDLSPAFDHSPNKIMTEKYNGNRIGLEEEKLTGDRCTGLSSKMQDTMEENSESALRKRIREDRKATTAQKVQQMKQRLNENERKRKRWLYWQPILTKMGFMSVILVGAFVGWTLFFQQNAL
pIC50: −log10 of the molar value.
Readout: pIC50

As a guide, the following entries are already answered.
{"columns": ["Compound", "Measurement Target", "pIC50"],
 "data": [
  ["O=C(CCc1c[nH]c2ccccc12)N[C@@H](Cc1ccc(OCc2ccccc2)cc1)c1nc(C(=O)Nc2ccc(Cl)c(C(=O)O)c2)c(-c2ccccc2)s1", "Tyrosine-protein phosphatase non-receptor type 2 (Homo sapiens)", 5.47],
  ["O=C(O)c1cccc(NC(=O)c2nc([C@H](Cc3ccc(OCc4ccccc4)cc3)NC(=O)C3CCCCC3)sc2-c2ccccc2)c1", "Tyrosine-protein phosphatase non-receptor type 2 (Homo sapiens)", 5.40]
]}

[A] O=C(CCc1c[nH]c2ccccc12)N[C@@H](Cc1ccc(OCc2ccccc2)cc1)c1nc(C(=O)Nc2cc(C(=O)O)ccc2F)c(-c2ccccc2)s1
[B] O=C(CCc1c[nH]c2ccccc12)N[C@@H](Cc1ccc(OCc2ccccc2)cc1)c1nc(C(=O)Nc2cc(F)ccc2C(=O)O)c(-c2ccccc2)s1
// query From the recorded data, which exceeds the other in pIC50: A or B ? Please reply using the label of the selected record.
// result B

---

Target: Tyrosine-protein phosphatase non-receptor type 1 (Homo sapiens) (UniProt P18031)
Sequence (whole entry): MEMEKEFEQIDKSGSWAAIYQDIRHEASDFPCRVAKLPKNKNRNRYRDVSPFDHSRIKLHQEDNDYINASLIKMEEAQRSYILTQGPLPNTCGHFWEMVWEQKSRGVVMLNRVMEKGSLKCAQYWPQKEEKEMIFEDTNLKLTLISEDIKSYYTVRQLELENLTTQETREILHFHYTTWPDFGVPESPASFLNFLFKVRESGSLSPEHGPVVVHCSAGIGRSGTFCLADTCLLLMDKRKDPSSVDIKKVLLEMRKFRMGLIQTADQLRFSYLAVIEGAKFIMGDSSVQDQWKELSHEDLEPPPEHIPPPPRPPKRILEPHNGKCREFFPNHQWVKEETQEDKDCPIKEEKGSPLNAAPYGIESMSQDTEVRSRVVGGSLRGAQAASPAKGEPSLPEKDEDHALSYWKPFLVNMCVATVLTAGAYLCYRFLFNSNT
Experiment: Inhibition of PTP1B (unknown origin) expressed in CHO cells over-expressing human IR assessed as increase in insulin-mediated IR-beta phosphorylation preincubated for 2 hrs followed by insulin challenge for 10 mins by Western blotting analysis
Format: cell-based
The source made the active and inactive calls. The rule behind the calls is not given here.
// allowed return values: YES = active, NO = inactive

Please review the following examples before continuing.
{"columns": ["Compound", "Class Assignment"],
 "data": [
  ["CCOC(=O)/C(C)=C\\C(C)=C\\c1nc([C@H](Cc2ccc(OCc3ccccc3)cc2)NC(=O)C2CCCCC2)sc1C", "NO"],
  ["O=C(CCc1c[nH]c2ccccc12)N[C@@H](Cc1ccc(OCc2ccccc2)cc1)c1nc(C(=O)Nc2cc(F)ccc2C(=O)O)c(-c2ccccc2)s1", "YES"],
  ["CCOC(=O)/C(C)=C\\C(C)=C\\c1nc([C@H](Cc2ccc(OCc3ccccc3)cc2)NC(=O)C2CCCCC2)sc1-c1ccccc1", "NO"]
]}

Below: the item to evaluate.
// query How did this test come out for O=C(CCc1c[nH]c2ccccc12)N[C@@H](Cc1ccc(OCc2ccccc2)cc1)c1nc(C(=O)Nc2cccc(C(=O)O)c2)c(-c2ccccc2)s1 ?
// result YES

---

Observed pIC50 values for Tyrosine-protein phosphatase non-receptor type 1 (Homo sapiens) are listed in what follows.
pIC50: −log10 of the molar value.
Readout: pIC50

// known answers, use as guide
{"columns": ["Compound", "Measured Result"],
 "data": [
  ["O=C(CCc1c[nH]c2ccccc12)N[C@@H](Cc1ccc(OCc2ccccc2)cc1)c1nc(C(=O)Nc2cc(F)ccc2C(=O)O)c(-c2ccccc2)s1", 6.27],
  ["O=C(CCc1c[nH]c2ccccc12)N[C@@H](Cc1ccc(OCc2ccccc2)cc1)c1nc(C(=O)Nc2ccccc2C(=O)O)c(-c2ccccc2)s1", 5.25],
  ["O=C(O)c1cccc(NC(=O)c2nc([C@H](Cc3ccc(OCc4ccccc4)cc3)NC(=O)C3CCCCC3)sc2-c2ccccc2)c1", 5.93],
  ["COC(=O)c1cccc(NC(=O)c2nc([C@H](Cc3ccc(OCc4ccccc4)cc3)NC(=O)C3CCCCC3)sc2-c2ccccc2)c1", 5.42],
  ["O=C(CCc1c[nH]c2ccccc12)N[C@@H](Cc1ccc(OCc2ccccc2)cc1)c1nc(C(=O)Nc2cc(C(=O)O)ccc2F)c(-c2ccccc2)s1", 5.95]
]}

[A] CCOC(=O)/C(C)=C\C(C)=C\c1nc([C@H](Cc2ccc(OCc3ccccc3)cc2)NC(=O)C2CCCCC2)sc1-c1ccccc1
[B] O=C(CCc1c[nH]c2ccccc12)N[C@@H](Cc1ccc(OCc2ccccc2)cc1)c1nc(C(=O)Nc2cc(Br)ccc2C(=O)O)c(-c2ccccc2)s1
// query Lowest pIC50? choose A or B Indicate which entry you chose by stating its label.
// result A

---

Molecular target: UniProt Q06124
Sequence (Q06124 whole entry): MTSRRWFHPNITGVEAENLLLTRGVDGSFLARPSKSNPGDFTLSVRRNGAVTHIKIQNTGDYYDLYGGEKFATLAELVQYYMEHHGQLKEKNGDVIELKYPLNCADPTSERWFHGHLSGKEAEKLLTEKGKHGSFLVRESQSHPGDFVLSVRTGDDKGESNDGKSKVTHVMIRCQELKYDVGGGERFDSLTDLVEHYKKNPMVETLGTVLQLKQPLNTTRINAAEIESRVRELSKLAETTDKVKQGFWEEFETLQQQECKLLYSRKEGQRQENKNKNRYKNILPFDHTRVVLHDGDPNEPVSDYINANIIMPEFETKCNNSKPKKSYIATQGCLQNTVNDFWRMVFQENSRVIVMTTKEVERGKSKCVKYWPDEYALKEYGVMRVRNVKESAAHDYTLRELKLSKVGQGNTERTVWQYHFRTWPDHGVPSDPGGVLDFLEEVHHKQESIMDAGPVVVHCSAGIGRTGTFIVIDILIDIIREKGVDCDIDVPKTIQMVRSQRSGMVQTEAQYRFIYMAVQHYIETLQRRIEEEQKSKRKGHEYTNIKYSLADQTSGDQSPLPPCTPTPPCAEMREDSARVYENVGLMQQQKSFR
Readout: IC50 (µM)

{"columns": ["Compound", "Measurement Units", "Measured Result"],
 "data": [
  ["O=C(CCc1c[nH]c2ccccc12)N[C@@H](Cc1ccc(OCc2ccccc2)cc1)c1nc(C(=O)Nc2cc(C(=O)O)ccc2F)c(-c2ccccc2)s1", "µM", 10.1],
  ["O=C(O)c1cccc(NC(=O)c2nc([C@H](Cc3ccc(OCc4ccccc4)cc3)NC(=O)C3CCCCC3)sc2-c2ccccc2)c1", "µM", 11.7]
]}

---

target: Tyrosine-protein phosphatase non-receptor type 1 (Homo sapiens); assay: Inhibition of PTP1B (unknown origin) expressed in CHO cells over-expressing human IR assessed as increase in insulin-mediated IR-beta phosphorylation preincubated for 2 hrs followed by insulin challenge for 10 mins by Western blotting analysis; type: cell-based
Active and inactive are the calls of the source. No cut-off for these calls is given here.
Readout: inhibition

{"columns": ["Compound", "Readout", "Measured Result"],
 "data": [
  ["CCOC(=O)/C(C)=C\\C(C)=C\\c1nc([C@H](Cc2ccc(OCc3ccccc3)cc2)NC(=O)C2CCCCC2)sc1CC(C)C", "inhibition", "inactive"],
  ["CCOC(=O)/C(C)=C\\C(C)=C\\c1csc([C@H](Cc2ccc(OCc3ccccc3)cc2)NC(=O)C2CCCCC2)n1", "inhibition", "inactive"],
  ["C/C(=C/C(C)=C/c1csc([C@H](Cc2ccc(OCc3ccccc3)cc2)NC(=O)C2CCCCC2)n1)C(=O)O", "inhibition", "inactive"]
]}

---

species on record: Homo sapiens; assay: Selectivity ratio of IC50 for TCPTP (unknown origin) to IC50 for GST-tagged PTP1B (unknown origin)
Readout: Ratio IC50

{"columns": ["Compound", "Ratio IC50"],
 "data": [
  ["O=C(CCc1c[nH]c2ccccc12)N[C@@H](Cc1ccc(OCc2ccccc2)cc1)c1nc(C(=O)Nc2cc(F)ccc2C(=O)O)c(-c2ccccc2)s1", 2.6],
  ["O=C(O)c1cccc(NC(=O)c2nc([C@H](Cc3ccc(OCc4ccccc4)cc3)NC(=O)C3CCCCC3)sc2-c2ccccc2)c1", 3.4],
  ["O=C(CCc1c[nH]c2ccccc12)N[C@@H](Cc1ccc(OCc2ccccc2)cc1)c1nc(C(=O)Nc2cccc(C(=O)O)c2)c(-c2ccccc2)s1", 3.3]
]}

[a] O=C(CCc1c[nH]c2ccccc12)N[C@@H](Cc1ccc(OCc2ccccc2)cc1)c1nc(C(=O)Nc2ccc(Cl)c(C(=O)O)c2)c(-c2ccccc2)s1
[b] O=C(CCc1c[nH]c2ccccc12)N[C@@H](Cc1ccc(OCc2ccccc2)cc1)c1nc(C(=O)Nc2cc(C(=O)O)ccc2F)c(-c2ccccc2)s1
// query // returns a or b , whichever has the lower Ratio IC50 # respond with the chosen item's label
// result a
